B1: Neutrophil cytosol factor 2, residues 456 to 514; numbered along this chain, P19878 (parent)
chain: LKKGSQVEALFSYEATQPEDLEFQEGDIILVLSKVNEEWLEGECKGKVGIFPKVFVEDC

# Variants of: B1
# assay-name: abundance fitness (aPCA) (normalised: wild type 0, dead -1); higher = more abundant; growth selection in yeast, the domain comes from the species named
# conditions-used: Homo sapiens
property: abundance fitness
The response must contain the number and no unit.

V31R = -0.581

Prompt line: Field request: abundance fitness | item: Y13C
Response line: -0.432
